Test system: MKNK1
Condition context: concentration: 1 μM,replicates: in singlicate; n = 1;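 also: KINOMEscan kinase panel screen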
Recorded %Inh, one value per entry.
Entry rule: numbers only, all in %.

Sample records with %Inh:
> print(dat)
                                   compound  value.reported
1  O=C(NCCNc1ccnc(NCc2ccc(F)cc2)n1)c1cc2ccccc2s1 [GSK1379944]               8
2  Cl.Cl.NC[C@H](Cc1ccc(C(F)(F)F)cc1)NC(=O)c1cc(Br)c(-c2ccnc3[nH]ccc23)s1 [GSK1487252]               0

Exercise: // query %Inh value for entry O=C(NCCCN1CCOC1=O)c1cnc(NCc2cc(Cl)ccc2Cl)nc1NC1CCCC1
Key: 11

Exercise: Report %Inh for Cl.Cl.NC[C@H](CC1CCCCC1)NC(=O)c1cc(Br)c(-c2ccnc3[nH]ccc23)s1 [GSK1581427] please.
Key: 13

Exercise: Name the reported %Inh value associated with the compound CNC(=O)c1ccccc1Sc1ccc2c(/C=C/c3ccccn3)n[nH]c2c1
Key: 0

###

Tested on: HIPK3
Condition context: concentration: 1 μM,replicates: in singlicate; n = 1
Below, each entry is listed alongside its reported %Inh.
Write down the numeric answer in % and omit the unit.

> print(dat)
                            chemical.smiles  endpoint  value.reported
1  Cc1ccc2c(-c3ccncc3)c(-c3ccc(F)cc3)nn2c1.Cl      %Inh               1
2  Cc1cc(C(=O)Nc2ccc(Oc3ccc4nc(NC(=O)C5CC5)cn4n3)cc2)nn1-c1ccccc1      %Inh               0
3  COc1ccc(C[C@@H](CN)NC(=O)c2cc(Br)c(-c3ccnc4[nH]ccc34)s2)cc1.Cl.Cl      %Inh            97.4

Moving on to the next compound.
Exercise: Which %Inh reading was recorded for the compound CCn1c(-c2nonc2N)nc2c(C#CC(C)(C)O)nc(OCCN)cc21.Cl.Cl ?
Key: 43

###

Tested on: PDGFRB
Condition context: concentration: 1 μM,replicates: in singlicate; n = 1
Recorded %Inh, one value per entry.
Record the result as a number with its unit.

> print(dat)
                            chemical.smiles  value.reported
1  Cc1ccc(-n2nc(C(C)(C)C)cc2NC(=O)Nc2ccc(OCCN3CCOCC3)c3ccccc23)cc1             87%
2  COc1ccc(C[C@@H](CN)NC(=O)c2cc(Br)c(-c3ccnc4[nH]ccc34)s2)cc1.Cl.Cl           96.3%
3  Cl.Oc1cc(-c2nc(-c3ccccc3)[nH]c2-c2ccncc2)ccc1Cl             11%
4  Cl.Cl.NC[C@H](CC1CCCCC1)NC(=O)c1cc(Br)c(-c2ccnc3[nH]ccc23)s1             75%
5  Cc1ccc2c(-c3ccncc3)c(-c3ccc(F)cc3)nn2c1.Cl              8%

Exercise: Need %Inh of CCN(CC)CCCCNc1ncc2cc(-c3c(Cl)cccc3Cl)c(NC(=O)NC(C)(C)C)nc2n1 , thanks.
Key: 100%

Exercise: Consider the molecule shown here: Nc1nc(Nc2ccccc2)cc(-c2ccc3c(N)n[nH]c3c2)n1 What is its recorded %Inh?
Key: 2%

Exercise: Record request: %Inh value, item O=C(NCCNc1ccnc(NCc2ccc(F)cc2)n1)c1cc2ccccc2s1
Key: 86%

Recorded values, source paper PMC5540273.
